Tested on: RXRa DBDmut IVT, anti-RXR (DBD mutation: RXRa K156A/R161A, NR concentration 90 nM)
Assay: PBM binding z-score (relative to random genomic background probes); higher = stronger binding; sequences stand for … in GC…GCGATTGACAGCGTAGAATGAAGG
PBM binding z-score below 0.4 gives condition not met; PBM binding z-score at or above it gives condition met.

Input line: Decide: is the reported value of PBM binding z-score for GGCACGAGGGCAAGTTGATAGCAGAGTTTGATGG equal to or greater than 0.4?
Output line: condition met

Input line: Can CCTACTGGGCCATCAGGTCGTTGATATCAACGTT be said to have PBM binding z-score at or above 0.4?
Output line: condition not met

Input line: State whether the measured PBM binding z-score reaches 0.4, counting equality as reaching it, for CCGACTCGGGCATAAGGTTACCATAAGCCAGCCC
Output line: condition not met

Input line: For this sequence, is measured PBM binding z-score 0.4 or higher? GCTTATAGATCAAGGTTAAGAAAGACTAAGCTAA
Output line: condition not met

Input line: Please indicate if the recorded PBM binding z-score for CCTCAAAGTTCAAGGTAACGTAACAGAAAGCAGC meets or exceeds 0.4.
Output line: condition met

Input line: Answer whether PBM binding z-score of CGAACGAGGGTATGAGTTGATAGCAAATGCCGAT is greater than or equal to 0.4.
Output line: condition met

Input line: State whether the measured PBM binding z-score reaches 0.4, counting equality as reaching it, for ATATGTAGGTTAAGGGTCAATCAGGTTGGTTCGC
Output line: condition met

Input line: Is PBM binding z-score for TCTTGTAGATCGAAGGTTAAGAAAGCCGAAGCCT at or above 0.4?
Output line: condition met

Input line: Please check the record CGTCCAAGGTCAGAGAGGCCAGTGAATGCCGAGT and state if its PBM binding z-score is at or above 0.4.
Output line: condition met

Input line: Please tell me: is the sequence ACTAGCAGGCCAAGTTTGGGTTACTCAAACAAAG at or over 0.4 in terms of PBM binding z-score?
Output line: condition not met

Input line: Threshold query (PBM binding z-score >= 0.4) on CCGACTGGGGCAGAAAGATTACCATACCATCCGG
Output line: condition not met

====

System: PPARg:RXRa DBDmut IVT, anti-RXR (DBD mutation: RXRa K156A/R161A, NR concentration 270 nM, RXRa partner concentration 90 nM)
Test: PBM binding z-score (relative to random genomic background probes); higher = stronger binding; sequences stand for … in GC…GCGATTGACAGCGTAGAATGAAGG
REPORTED_PROPERTY: PBM binding z-score
Please respond with just the number, no unit label.

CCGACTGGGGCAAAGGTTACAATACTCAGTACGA has a reported PBM binding z-score of 4.99

What the record says about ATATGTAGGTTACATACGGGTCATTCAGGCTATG : PBM binding z-score is 7.45

Item: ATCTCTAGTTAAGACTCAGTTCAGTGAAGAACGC | PBM binding z-score: 0.356

PBM binding z-score for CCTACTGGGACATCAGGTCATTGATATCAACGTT is 4.19

Please fill in: PBM binding z-score reported for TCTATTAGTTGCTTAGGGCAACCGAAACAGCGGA = 2.15

Consider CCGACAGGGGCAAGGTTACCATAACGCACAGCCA . Its measured PBM binding z-score is -0.0279

Sure, the documented PBM binding z-score for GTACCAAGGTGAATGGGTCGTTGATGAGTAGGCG is 1.52

Notebook: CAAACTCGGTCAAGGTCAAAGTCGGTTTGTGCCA , PBM binding z-score read as 4.82

Entry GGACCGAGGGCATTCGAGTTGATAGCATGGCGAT , PBM binding z-score reported as 0.308

# sequence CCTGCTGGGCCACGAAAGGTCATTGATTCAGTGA ; its PBM binding z-score = 1.93

// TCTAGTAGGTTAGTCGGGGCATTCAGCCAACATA : PBM binding z-score value = 4.91

Lab note: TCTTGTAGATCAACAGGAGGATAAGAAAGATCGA gave PBM binding z-score of 1.64

PBM binding z-score for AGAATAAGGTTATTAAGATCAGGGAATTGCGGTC is 2.24

Entry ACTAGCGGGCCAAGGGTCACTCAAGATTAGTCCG , PBM binding z-score reported as 0.353

// PBM binding z-score lookup, sequence = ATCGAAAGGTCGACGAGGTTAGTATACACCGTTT , result: 0.568

Reported PBM binding z-score ( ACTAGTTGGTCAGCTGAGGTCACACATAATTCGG ) = 1.85

Record summary for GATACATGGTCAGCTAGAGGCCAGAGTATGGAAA : reported PBM binding z-score = -0.61

Consider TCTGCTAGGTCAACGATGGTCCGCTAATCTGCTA . Its measured PBM binding z-score is 4.07

Field PBM binding z-score (entry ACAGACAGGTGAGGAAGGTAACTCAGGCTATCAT ) reads 0.129

PBM binding z-score reported for this sequence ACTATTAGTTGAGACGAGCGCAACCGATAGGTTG : -0.504

Lookup result for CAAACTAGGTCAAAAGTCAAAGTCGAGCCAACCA ; measured PBM binding z-score: 8.48

The sequence identified as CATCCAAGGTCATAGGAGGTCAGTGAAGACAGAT registered its PBM binding z-score at 3.6

Reported PBM binding z-score for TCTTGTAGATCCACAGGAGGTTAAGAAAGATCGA was 1.11

sequence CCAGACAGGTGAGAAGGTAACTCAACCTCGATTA , PBM binding z-score observed: 1.22

get_value(item= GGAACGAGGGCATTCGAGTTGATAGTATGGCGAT , readout=PBM binding z-score) returns 3

# PBM binding z-score of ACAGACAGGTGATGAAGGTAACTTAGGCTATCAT = 0.373

Per the record, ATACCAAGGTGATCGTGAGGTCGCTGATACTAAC has PBM binding z-score of 0.629

Kindly note the recorded PBM binding z-score for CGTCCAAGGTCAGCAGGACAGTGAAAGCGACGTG , which is 2.27

Given item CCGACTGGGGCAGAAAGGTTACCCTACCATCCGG , the value recorded as its PBM binding z-score is 1.23

The recorded PBM binding z-score for entry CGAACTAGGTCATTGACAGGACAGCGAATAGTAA equals 7.7

Record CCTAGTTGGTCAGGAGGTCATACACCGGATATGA . Reported PBM binding z-score: 1.25

GET /value?item= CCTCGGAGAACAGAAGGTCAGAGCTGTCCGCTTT &field=PBM binding z-score returns 0.0999

PBM binding z-score in this record for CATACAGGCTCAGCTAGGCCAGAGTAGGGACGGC : -0.65

Value of PBM binding z-score reported for the sequence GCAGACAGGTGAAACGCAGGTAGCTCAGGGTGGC is 1.07

Entry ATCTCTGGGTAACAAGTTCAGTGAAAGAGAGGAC — recorded PBM binding z-score = 2.93

PBM binding z-score in this record for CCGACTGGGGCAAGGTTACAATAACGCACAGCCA : 3.2

So, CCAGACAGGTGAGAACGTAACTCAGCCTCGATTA ? Its PBM binding z-score was 0.85

Field PBM binding z-score (entry TCAGAAAGGTGAAGGTAACTCAGGTACGCAGTCG ) reads 4.06

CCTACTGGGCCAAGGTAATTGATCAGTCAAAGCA has a reported PBM binding z-score of 4.09

// sample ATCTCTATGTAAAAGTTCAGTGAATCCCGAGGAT , its PBM binding z-score was -0.373

Noted for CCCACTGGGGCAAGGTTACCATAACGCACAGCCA : its PBM binding z-score reads 4.18

Entry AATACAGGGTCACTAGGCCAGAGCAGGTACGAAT ; PBM binding z-score = 4.31

The sequence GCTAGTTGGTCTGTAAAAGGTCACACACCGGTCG showed PBM binding z-score equal to 0.547

PBM binding z-score reading for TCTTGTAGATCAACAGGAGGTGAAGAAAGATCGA : 1.56

Looking up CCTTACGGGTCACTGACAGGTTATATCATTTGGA , I found its PBM binding z-score recorded as 3.09

The measured PBM binding z-score associated with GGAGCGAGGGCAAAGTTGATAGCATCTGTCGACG reads 0.739

# PBM binding z-score of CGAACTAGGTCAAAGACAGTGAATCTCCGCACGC = 8.07

// field: PBM binding z-score; key: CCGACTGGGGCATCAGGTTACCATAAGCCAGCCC ; value = 3.34

Lab book: PBM binding z-score of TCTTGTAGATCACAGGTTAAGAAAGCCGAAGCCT noted as 2.16

Entry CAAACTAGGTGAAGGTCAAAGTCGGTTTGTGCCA — recorded PBM binding z-score = 8.04

PBM binding z-score for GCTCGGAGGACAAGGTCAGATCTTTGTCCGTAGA is -0.309

Each recorded value in this set is attributed to the supplement of paper PMC6555819.
